Molecular target: full length NS3/4a (Hepatitis C virus genotype 1b (isolate BK) (HCV), UniProt P26663)
Sequence (P26663 1027-1657): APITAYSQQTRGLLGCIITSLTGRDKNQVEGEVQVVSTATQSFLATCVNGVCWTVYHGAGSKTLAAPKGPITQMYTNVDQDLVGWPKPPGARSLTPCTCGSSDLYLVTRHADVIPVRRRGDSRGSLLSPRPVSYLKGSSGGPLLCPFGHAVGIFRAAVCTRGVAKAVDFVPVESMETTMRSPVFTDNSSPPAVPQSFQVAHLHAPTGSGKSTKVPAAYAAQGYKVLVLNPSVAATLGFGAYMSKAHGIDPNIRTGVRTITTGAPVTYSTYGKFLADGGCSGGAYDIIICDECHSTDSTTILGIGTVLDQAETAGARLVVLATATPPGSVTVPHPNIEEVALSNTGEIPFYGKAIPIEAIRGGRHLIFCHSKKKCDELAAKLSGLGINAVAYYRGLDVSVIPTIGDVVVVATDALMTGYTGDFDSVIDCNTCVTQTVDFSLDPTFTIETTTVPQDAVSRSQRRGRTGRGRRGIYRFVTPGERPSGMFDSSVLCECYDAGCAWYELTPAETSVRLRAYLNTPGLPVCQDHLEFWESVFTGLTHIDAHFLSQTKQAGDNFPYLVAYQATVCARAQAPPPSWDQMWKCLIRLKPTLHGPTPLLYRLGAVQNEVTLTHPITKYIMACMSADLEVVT
Assay: NS3 Protease Assay (Example A), FRET-based
Type: biochemical
Conditions: read-out: IC50 against the protease activity of the full length NS3/4a
pIC50: −log10 of the molar value.
Observation type: pIC50

These recorded examples may help you get a feel for the data.
Compound: CCC(NC1CCCC1C(N)=O)c1ccc(Cl)c(C(=O)c2ccc(N)nc2)c1F (single isomer, unassigned) [Example 127]
pIC50: 5.30 to 6.00
//
Compound: CC[C@@H](N)c1ccc(OC)c(C(=O)c2ccc(F)cc2)c1F
pIC50: 5.30 to 6.00
//
Compound: CC[C@@H](N)c1ccc(Cl)c(C(=O)c2cn[nH]c2)c1F
pIC50: 5.30 to 6.00
//
Compound: CC[C@@H](N)c1ccc(Cl)c(C(=O)c2ccc(-n3cccn3)nc2)c1F
pIC50: > 6.00
//
Compound: CC[C@H](NC(=O)C1=CCCNC1)c1ccc(Cl)c(C(=O)c2cccnc2)c1F
pIC50: > 6.00

Required: pIC50, one value per compound below.
1. CC[C@@H](N)c1ccc(Cl)c(C(=O)c2ccc(COC(C)=O)cc2)c1F
2. CC[C@@H](N[C@H](C)CC(N)=O)c1ccc(Cl)c(C(=O)c2ccc(-n3cc(CO)cn3)nc2)c1F
3. CC[C@@H](N[C@H](C)CC(N)=O)c1ccc(Cl)c(C(=O)c2cccc(C(=O)O)c2)c1F

> 6.00
5.30 to 6.00
5.30 to 6.00

====

Molecular target: full length NS3/4a (Hepatitis C virus genotype 1b (isolate BK) (HCV))
Test: NS3 Protease Assay (Example A), FRET-based
Format: biochemical
Conditions: HCV NS3 protease assay, full length NS3/4a; read-out: Assay A IC50 (μM) average
Observation type: IC50
Returns: string containing the numeric result and its unit.

Compound: CC[C@@H](N[C@@H](C)C1(C(N)=O)CC1)c1ccc(Cl)c(C(=O)c2cccnc2)c1F
Result: 0.14 µM
--
Compound: CC[C@@H](N[C@@H](C)CC(N)=O)c1ccc(Cl)c(C(=O)c2ccc(N)cn2)c1F
Result: 0.2 µM
--
Compound: CC[C@@H](N[C@@H](C)CC(N)=O)c1ccc(Cl)c(C(=O)c2cccc(C#N)c2)c1F
Result: 0.11 µM

We now examine a further compound.
Supply IC50 value. Item: CC[C@@H](N[C@H](CC(N)=O)C(C)C)c1ccc(Cl)c(C(=O)c2ccc(N)nc2)c1F
7.5 µM

====

Target: full length NS3/4a (Hepatitis C virus genotype 1b (isolate BK) (HCV))
Assay: NS3 Protease Assay (Example A), FRET-based
Format: biochemical
Conditions: HCV NS3 protease assay, full length NS3/4a; read-out: Assay A IC50 (μM) average
Friendly reminder: IC50 below 0.5 µM is Satisfied, at or above is Not satisfied.

Compound: CC[C@@H](N[C@@H](C)CC(N)=O)c1ccc(Cl)c(C(=O)c2ccnc(N)c2)c1F
Class assignment: Satisfied
//
Compound: C[C@@H](CC(N)=O)N[C@@H](c1ccc(Cl)c(C(=O)c2ccc(N)cn2)c1F)C1CC1
Class assignment: Satisfied
//
Compound: CC[C@@H](N[C@@H](C)CC(N)=O)c1ccc(Cl)c(C(=O)c2ccc(N(C)C)nc2)c1F
Class assignment: Not satisfied
//
Compound: CC(C)C[C@@H](N[C@@H](C)CC(N)=O)c1ccc(Cl)c(C(=O)c2ccc(N)nc2)c1F
Class assignment: Not satisfied
//
Compound: CC[C@@H](N[C@H](C)CC(N)=O)c1ccc(Cl)c(C(=O)c2ccc(N)nc2)c1F [Example 266]
Class assignment: Not satisfied

# TODO verify IC50 < 0.5 µM strictly for this compound: CC[C@@H](N[C@H](C)CC(N)=O)c1ccc(OC)c(C(=O)c2ccc(N)nc2)c1F
Not satisfied

A record lists CC[C@@H](N[C@H](C)CC(N)=O)c1ccc(Cl)c(C(=O)c2ccns2)c1F . Is its IC50 below 0.5 µM?
Satisfied

====

Assay: Replicon Assay (Example B), Alamar Blue cytotoxicity CC50
Assay type: cell-based
Conditions: human, lower value of the cell pair
Observation type: CC50 at 72 h

Dear colleague, could you please provide CC50 at 72 h for the compounds listed below?
1. CC[C@@H](N[C@@H](C)CC(N)=O)c1ccc(OC)c(C(=O)c2ccc(N)c(C)c2)c1F [Example 273]
2. CC[C@@H](N[C@@H](C)CC(N)=O)c1ccc(Cl)c(C(=O)c2cc[n+]([O-])cc2)c1F [Example 142]
3. CC[C@@H](N[C@@H](C)CC(N)=O)c1ccc(Cl)c(C(=O)c2ccc[n+]([O-])c2)c1F [Example 116]

> 3000 nM
> 3000 nM
> 3000 nM

Hey, quick one: what's CC50 at 72 h for each of these?
1. CC[C@@H](N[C@@H](C)CC(N)=O)c1ccc(Cl)c(C(=O)c2ccns2)c1F [Example 108]
2. CC[C@@H](N[C@@H](C)CC(N)=O)c1ccc(Cl)c(C(=O)c2ccccc2)c1F [Example 84]
3. CC[C@@H](N[C@@H](C)CC(N)=O)c1ccc(C)c(C(=O)c2ccccc2)c1F [Example 150]
4. CC[C@@H](N[C@@H](C)CC(N)=O)c1ccc(Cl)c(C(=O)c2ccc(C#N)nc2)c1F [Example 133]
5. CC[C@@H](N[C@@H](C)CC(N)=O)c1ccc(F)c(C(=O)c2ccccc2)c1F [Example 157]

["> 3000 nM", "> 3000 nM", "> 10000 nM", "> 3000 nM", "> 10000 nM"]

====

Target: full length NS3/4a (Hepatitis C virus genotype 1b (isolate BK) (HCV), UniProt P26663)
Assay: NS3 Protease Assay (Example A), FRET-based
Type: biochemical
Settings: @ 10 uM
Observation type: inhibition at 10 µM (%)
Numbers only, in %.

Worked examples, 7 compounds total:
Compound: CC[C@@H](NCC(N)=O)c1ccc(Cl)c(C(=O)c2cccnc2)c1F
inhibition at 10 µM [%]: 37
--
Compound: CC[C@@H](N)c1ccc(Cl)c(C(=O)c2ccc(-n3cc(CO)cn3)nc2)c1F
inhibition at 10 µM [%]: 64
--
Compound: CC[C@@H](N)c1ccc(Cl)c(C(=O)c2ccc3c(n2)NC(=O)CO3)c1F
inhibition at 10 µM [%]: 31
--
Compound: CC[C@@H](N)c1ccc(Cl)c(C(=O)c2ccc(N)nn2)c1F
inhibition at 10 µM [%]: 45
--
Compound: CC[C@@H](N)c1ccc(Cl)c(C(=O)c2ccc(N(C)C)nc2)c1F
inhibition at 10 µM [%]: 30
--
Compound: CC[C@@H](NCCO)c1ccc(Cl)c(C(=O)c2cccnc2)c1F
inhibition at 10 µM [%]: 62
--
Compound: CC[C@@H](N[C@H](C)CC(N)=O)c1ccc(Cl)c(C(=O)c2ccc(N)nn2)c1F
inhibition at 10 µM [%]: 40

Now for another entry.
Lab note: full length NS3/4a (Hepatitis C virus genotype 1b (isolate BK) (HCV), UniProt P26663) assay, enter inhibition at 10 µM for CCC(NC1CCCC1C(N)=O)c1ccc(Cl)c(C(=O)c2ccc(N)nc2)c1F (single isomer, unassigned) here
60

====

Target: full length NS3/4a (Hepatitis C virus genotype 1b (isolate BK) (HCV))
Experiment: NS3 Protease Assay (Example A), FRET-based
Type: biochemical
Settings: HCV NS3 protease assay, full length NS3/4a; read-out: Assay A IC50 (μM) average
Under this convention, Fulfilled denotes IC50 strictly below 0.6 µM and Not fulfilled denotes IC50 at or above 0.6 µM.

Past entries and their recorded results:
Compound: CC[C@@H](N)c1ccc(Cl)c(C(=O)c2cccc(F)c2)c1F
Study system: full length NS3/4a (Hepatitis C virus genotype 1b (isolate BK) (HCV))
Class assignment: Fulfilled
--
Compound: CC[C@@H](N[C@H](C)C1(C(N)=O)CC1)c1ccc(Cl)c(C(=O)c2cccnc2)c1F
Study system: full length NS3/4a (Hepatitis C virus genotype 1b (isolate BK) (HCV))
Class assignment: Not fulfilled
--
Compound: CC[C@@H](N[C@@H](C)CC(N)=O)c1ccc(OC)c(C(=O)c2cccc(C#N)c2)c1F
Study system: full length NS3/4a (Hepatitis C virus genotype 1b (isolate BK) (HCV))
Class assignment: Fulfilled

Regarding CC[C@@H](N)c1ccc(Cl)c(C(=O)c2cccc(C#N)c2)c1F , kindly confirm whether its IC50 is beneath 0.6 µM.
Not fulfilled

Is it true that IC50 reported for COc1ccc([C@H](N)C2CC2)c(F)c1C(=O)c1cccc(F)c1 is less than 0.6 µM?
Not fulfilled

Take the compound CC[C@@H](NC(C)(C)CC(N)=O)c1ccc(Cl)c(C(=O)c2ccc(N)nc2)c1F and say whether its IC50 is less than 0.6 µM.
Fulfilled

Criterion: IC50 strictly below 0.6 µM. Is it met by CCC(NC1CCCC1C(N)=O)c1ccc(Cl)c(C(=O)c2ccc(N)nc2)c1F (single isomer, unassigned) [Example 126] ?
Fulfilled

In the record for CC[C@@H](N[C@@H](C)CC(N)=O)c1ccc(Cl)c(C(=O)c2ccc3c(c2)OCC(=O)N3)c1F , is IC50 less than 0.6 µM?
Fulfilled

Field: below-cutoff. Rule: recorded IC50 strictly less than 0.6 µM. Subject: CC[C@@H](N[C@@H](C)CC(N)=O)c1ccc(OC)c(C(=O)c2ccc(F)cc2)c1F
Fulfilled

In the record for CC[C@H](N)c1ccc(Cl)c(C(=O)c2cccnc2)c1F , is IC50 less than 0.6 µM?
Not fulfilled

Below 0.6 µM on IC50? Entry C[C@H](CC(N)=O)N[C@@H](c1ccc(Cl)c(C(=O)c2cnc(N)cn2)c1F)C1CC1
Not fulfilled

Bench note: check whether CC[C@H](NCCCO)c1ccc(Cl)c(C(=O)c2ccccc2)c1F shows IC50 below 0.6 µM
Fulfilled

Lab note: IC50 threshold 0.6 µM. Does this compound come in strictly under it? COc1cc(C(=O)c2c(Cl)ccc([C@H](N)C3CC3)c2F)ccc1C#N
Fulfilled

Determine if N#Cc1ccc(C(=O)c2c(Cl)ccc([C@H](N)C3CC3)c2F)nc1 shows IC50 strictly lower than 0.6 µM.
Fulfilled

State whether 0.6 µM exceeds IC50 recorded for CC[C@@H](N[C@H](C)CC(N)=O)c1ccc(Cl)c(C(=O)c2ccc(N)nc2)c1F [Example 82] .
Not fulfilled

is_below(IC50, 0.6 µM) for CC[C@@H](N[C@@H](C)CC(N)=O)c1ccc(Cl)c(C(=O)c2cccnc2)c1F ?
Fulfilled

Strictly below 0.6 µM in IC50? C[C@H](CC(N)=O)N[C@@H](c1ccc(Cl)c(C(=O)c2ccc(N)cn2)c1F)C1CC1
Not fulfilled
